# key: entry, value: EC50
System Name: cloned human δ receptors (Homo sapiens, UniProt P41143)
Construct: expressed in transfected cells; host or cells: human HEK-293S cells, grown in suspension under geneticin selection
Sequence (P41143 whole entry): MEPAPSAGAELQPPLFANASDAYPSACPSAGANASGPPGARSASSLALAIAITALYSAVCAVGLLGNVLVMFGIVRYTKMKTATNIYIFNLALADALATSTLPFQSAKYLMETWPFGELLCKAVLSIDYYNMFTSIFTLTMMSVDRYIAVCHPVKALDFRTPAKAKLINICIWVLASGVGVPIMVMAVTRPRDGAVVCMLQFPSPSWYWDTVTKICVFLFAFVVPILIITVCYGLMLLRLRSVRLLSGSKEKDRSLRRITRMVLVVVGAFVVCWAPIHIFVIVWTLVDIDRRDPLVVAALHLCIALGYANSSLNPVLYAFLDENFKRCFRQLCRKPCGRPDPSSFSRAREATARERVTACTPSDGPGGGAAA
Method Description: Human δ receptor GTP[γ]35S functional assay (low expression)
Format: biochemical
Observation Type: EC50

{"columns": ["Compound", "Observation Type", "Result"],
 "data": [
  ["CCN(CC)C(=O)c1ccc(C(c2cccc(C(=O)NC)c2)N2CCN(Cc3ccccc3)CC2)cc1 (single isomer, unassigned)", "EC50", "0.5 to 83 nM"],
  ["CCN(CC)C(=O)c1ccc(C(c2cccc(C(N)=O)c2)N2CCN(Cc3ccccc3)CC2)cc1 (single isomer, unassigned)", "EC50", "0.5 to 83 nM"],
  ["CCN(CC)C(=O)c1ccc(C(c2cccc(C(N)=O)c2)N2CCN(Cc3ccco3)CC2)cc1 (single isomer, unassigned)", "EC50", "0.5 to 83 nM"]
]}
